Recorded IC50 for the following compounds
# system: UniProt Q9NYK1
# assay-remarks: TLR7 inhibition reporter assay (HEK-Blue cells, SEAP reporter, gardiquimod stimulation)
# condition-set: HEK-Blue cells overexpressing human TLR7, SEAP reporter, gardiquimod 7.5 μM

Cc1n[nH]c2nccc(-c3[nH]c4ccc(C5CCNCC5)cc4c3C(C)C)c12: < 100 nM

Task: What measured IC50 goes with `COc1cc(-c2[nH]c3ccc(C4CCN(CC(=O)N(C)C)CC4)cc3c2C(C)C)cc2nc(C)nn12` ?
Result: < 100 nM

Task: What measured IC50 goes with `Cc1cc(-c2[nH]c3ccc(C4CCN(C5CCOCC5)CC4)cc3c2C(C)C)cc2cncn12` ?
Result: < 100 nM

Task: What measured IC50 goes with CNCCN1CCC(c2ccc3[nH]c(-c4ccnc5[nH]ncc45)c(C(C)C)c3c2)C(F)C1 (stereo not shown) [Example 675] ?
Result: < 100 nM

* * *

# system: human TLR7 (Homo sapiens)
# assay-remarks: TLR7 inhibition reporter assay (HEK-Blue cells, SEAP reporter, gardiquimod stimulation)
# condition-set: HEK-Blue cells overexpressing human TLR7, SEAP reporter, gardiquimod 7.5 μM
pIC50: −log10 of the molar value.
Recorded pIC50 for the following compounds

CNC(=O)CN1CCC(c2ccc3[nH]c(-c4cc(C)c5oc(=O)n(C)c5c4)c(C(C)C)c3c2)CC1 [Example 336]: > 7.00
CCc1c(-c2ccnc3[nH]ncc23)[nH]c2ccc(C3CCN(Cc4cc(C)n[nH]4)CC3)cc12 [Example 900]: 6.00 to 7.00
CC(C)c1c(-c2cn(C)c3ncccc23)[nH]c2ccc(C3CCN(CC(N)=O)CC3)cc12 [Example 296]: > 7.00
Cc1cc(-c2[nH]c3ccc(C4CCN(C(=O)CN(C)C)CC4)cc3c2C(C)C)cc2[nH]c(=O)oc12 [Example 490]: 6.00 to 7.00
Cc1ccnc2[nH]cc(-c3[nH]c4ccc(C5CCN(C(=O)CN(C)C)CC5)cc4c3C(C)C)c12 [Example 458]: > 7.00
CC(C)c1c(-c2ccc(C#N)c3ncccc23)[nH]c2ccc(C3CCNCC3)cc12 [Example 109]: > 7.00
CC(C)c1c(-c2cnc3ccnn3c2)[nH]c2ccc(C3CCN(C(=O)[C@@H]4NCC[C@H]4O)CC3)cc12 [Example 513]: 4.30 to 6.00

Task: Notebook: pull reported pIC50 for human TLR7 (Homo sapiens), entry CNCCN1CCC(c2ccc3[nH]c(-c4ccc5c(ccn5C)c4)c(C)c3c2)CC1 [Example 672]
Result: < 4.30

* * *

Recorded IC50 for the following compounds
# system: human TLR9 (Homo sapiens)
# assay-remarks: TLR9 inhibition reporter assay (HEK-Blue cells, SEAP reporter, ODN2006 stimulation)
# condition-set: HEK-Blue cells overexpressing human TLR9, SEAP reporter, ODN2006 5 nM

Solved cases (7 shown):
Cc1cc(-c2[nH]c3ccc(C4CCN(C5CCS(=O)(=O)CC5)CC4)cc3c2C(C)C)cc2cccnc12: 1000 to 50000 nM
CC(C)c1c(-c2ccc3c(c2)oc(=O)n3C)[nH]c2ccc(C3CCNCC3)cc12: 100 to 1000 nM
CC(C)c1c(-c2ccnc3cccnc23)[nH]c2ccc(C3CCNCC3)cc12: 1000 to 50000 nM
Cc1ccc(-c2[nH]c3ccc(C4CCNCC4)cc3c2C(C)C)c2ncnn12: 1000 to 50000 nM
Cc1cc(-c2[nH]c3ccc(C4CCNCC4)cc3c2C(C)C)cn2cc(C(=O)N(C)CCO)nc12: 1000 to 50000 nM
CC(C)c1c(-c2ccc3nnnn3c2)[nH]c2ccc(C3CCN(CC(=O)N(C)C)CC3)cc12: 1000 to 50000 nM
CCc1c(-c2c[nH]c3ncccc23)[nH]c2ccc(C3CCNCC3)cc12: 100 to 1000 nM

Could you now consider this next compound?
Task: What measured IC50 goes with `Cc1cc(-c2[nH]c3ccc(C4CCN(CC(=O)N(C)C)CC4)cc3c2C(C)C)cc2ccnn12` ?
Result: 1000 to 50000 nM

* * *

# system: human TLR9 (Homo sapiens)
# assay-remarks: TLR9 inhibition reporter assay (HEK-Blue cells, SEAP reporter, ODN2006 stimulation)
# condition-set: HEK-Blue cells overexpressing human TLR9, SEAP reporter, ODN2006 5 nM
Recorded IC50 for the following compounds

Solved cases (2 shown):
CC(C)c1c(-c2cc(C(C)(C)O)c3nccn3c2)[nH]c2ccc(C3CCNCC3)cc12 [Example 134]: 100 to 1000 nM
CNC(=O)CN1CCC(c2ccc3[nH]c(-c4ccc5ncnn5n4)c(C(C)C)c3c2)CC1 [Example 277]: 1000 to 50000 nM

Task: What measured IC50 goes with Cc1cc(-c2[nH]c3ccc(C4CCN(C5CCS(=O)(=O)CC5)CC4)cc3c2C(C)C)cn2ccnc12 [Example 799] ?
Result: 100 to 1000 nM

Task: What measured IC50 goes with CC(C)c1c(-c2ccn3nncc3c2)[nH]c2ccc(C3CCN(C4CCOCC4)CC3)cc12 [Example 696] ?
Result: 1000 to 50000 nM

Task: What measured IC50 goes with CCc1c(-c2cnc3cn[nH]c3c2)[nH]c2ccc(C3CCNCC3)cc12 [Example 62] ?
Result: 100 to 1000 nM

Task: What measured IC50 goes with CC(C)c1c(-c2ccc3cnnn3c2)[nH]c2ccc(C3CCN(C4COC4)CC3)cc12 [Example 734] ?
Result: 1000 to 50000 nM

Task: What measured IC50 goes with CCc1c(-c2ccnc3[nH]ncc23)[nH]c2ccc(C3CCN(Cc4cscn4)CC3)cc12 [Example 927] ?
Result: 1000 to 50000 nM

Task: What measured IC50 goes with CC(C)c1c(-c2cnc3ccnn3c2)[nH]c2ccc(C3CCN(C(C)C)CC3)cc12 [Example 944] ?
Result: 1000 to 50000 nM

* * *

# system: human TLR9 (Homo sapiens, UniProt Q9NR96)
# Construct: host or cells: HEK-Blue cells (HEK293-derived reporter line)
# Sequence (Q9NR96 26-1032): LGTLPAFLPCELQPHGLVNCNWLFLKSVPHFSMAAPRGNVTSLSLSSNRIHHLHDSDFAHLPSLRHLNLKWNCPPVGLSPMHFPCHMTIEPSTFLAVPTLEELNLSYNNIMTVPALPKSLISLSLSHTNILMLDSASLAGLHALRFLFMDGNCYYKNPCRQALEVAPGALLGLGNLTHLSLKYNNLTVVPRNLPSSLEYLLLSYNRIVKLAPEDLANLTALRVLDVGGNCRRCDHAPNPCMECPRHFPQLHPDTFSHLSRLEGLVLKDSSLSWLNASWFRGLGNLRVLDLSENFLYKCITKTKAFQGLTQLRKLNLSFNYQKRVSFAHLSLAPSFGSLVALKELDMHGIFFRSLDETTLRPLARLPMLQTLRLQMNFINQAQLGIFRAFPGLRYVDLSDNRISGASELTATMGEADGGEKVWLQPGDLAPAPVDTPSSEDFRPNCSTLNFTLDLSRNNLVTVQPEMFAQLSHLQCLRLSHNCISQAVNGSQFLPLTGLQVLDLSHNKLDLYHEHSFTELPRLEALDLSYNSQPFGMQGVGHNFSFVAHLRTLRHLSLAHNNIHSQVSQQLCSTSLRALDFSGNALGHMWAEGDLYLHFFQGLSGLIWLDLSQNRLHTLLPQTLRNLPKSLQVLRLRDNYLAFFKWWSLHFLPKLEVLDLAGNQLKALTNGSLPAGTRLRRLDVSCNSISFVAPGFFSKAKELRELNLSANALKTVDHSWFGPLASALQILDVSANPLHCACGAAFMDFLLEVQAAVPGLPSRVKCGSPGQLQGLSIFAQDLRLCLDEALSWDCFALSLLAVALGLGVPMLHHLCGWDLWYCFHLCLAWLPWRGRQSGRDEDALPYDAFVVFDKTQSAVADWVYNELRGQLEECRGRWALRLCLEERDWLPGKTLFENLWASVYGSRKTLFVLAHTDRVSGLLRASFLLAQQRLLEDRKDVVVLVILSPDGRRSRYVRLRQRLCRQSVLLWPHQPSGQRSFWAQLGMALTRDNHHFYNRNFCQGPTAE
# assay-remarks: TLR9 inhibition reporter assay (HEK-Blue cells, SEAP reporter, ODN2006 stimulation)
# Type: cell-based
# condition-set: HEK-Blue cells overexpressing human TLR9, SEAP reporter, ODN2006 5 nM
pIC50: −log10 of the molar value.
reported-endpoint: pIC50

Solved cases (5 shown):
CC(C)c1c(-c2ccnc3[nH]ncc23)[nH]c2ccc(C3CCN(C(=O)CN(C)C(C)C)CC3)cc12 [Example 585]: 4.30 to 6.00
CCc1c[nH]c2nccc(-c3[nH]c4ccc(C5CCNCC5)cc4c3C)c12 [Example 219]: 6.00 to 7.00
Cc1c(-c2[nH]c3ccc(C4CCNCC4)cc3c2C(C)C)cn2nnnc2c1C [Example 73]: 4.30 to 6.00
CC(C)c1c(-c2ccnc3[nH]ncc23)[nH]c2ccc(C3CCN(C(=O)c4cc[nH]n4)CC3)cc12 [Example 615]: 4.30 to 6.00
CCc1c(-c2ccnc3[nH]cc(C)c23)[nH]c2ccc(C3CCNCC3)cc12 [Example 217]: 6.00 to 7.00

Task: Notebook: pull reported pIC50 for human TLR9 (Homo sapiens, UniProt Q9NR96), entry CC(C)c1c(-c2cc(N)nc3[nH]cnc23)[nH]c2ccc(C3CCNCC3)cc12 [Example 228]
Result: 6.00 to 7.00

Task: Notebook: pull reported pIC50 for human TLR9 (Homo sapiens, UniProt Q9NR96), entry CNC(=O)CN1CCC(c2ccc3[nH]c(-c4cc(C)n5ccnc5c4)c(C(C)C)c3c2)CC1 [Example 355]
Result: 6.00 to 7.00

Task: Notebook: pull reported pIC50 for human TLR9 (Homo sapiens, UniProt Q9NR96), entry Cc1cc(-c2[nH]c3ccc(C4CCN(CC#N)CC4)cc3c2C(C)C)cn2nnnc12 [Example 961]
Result: 6.00 to 7.00

* * *

# system: human TLR7 (Homo sapiens, UniProt Q9NYK1)
# Sequence (Q9NYK1 27-1049): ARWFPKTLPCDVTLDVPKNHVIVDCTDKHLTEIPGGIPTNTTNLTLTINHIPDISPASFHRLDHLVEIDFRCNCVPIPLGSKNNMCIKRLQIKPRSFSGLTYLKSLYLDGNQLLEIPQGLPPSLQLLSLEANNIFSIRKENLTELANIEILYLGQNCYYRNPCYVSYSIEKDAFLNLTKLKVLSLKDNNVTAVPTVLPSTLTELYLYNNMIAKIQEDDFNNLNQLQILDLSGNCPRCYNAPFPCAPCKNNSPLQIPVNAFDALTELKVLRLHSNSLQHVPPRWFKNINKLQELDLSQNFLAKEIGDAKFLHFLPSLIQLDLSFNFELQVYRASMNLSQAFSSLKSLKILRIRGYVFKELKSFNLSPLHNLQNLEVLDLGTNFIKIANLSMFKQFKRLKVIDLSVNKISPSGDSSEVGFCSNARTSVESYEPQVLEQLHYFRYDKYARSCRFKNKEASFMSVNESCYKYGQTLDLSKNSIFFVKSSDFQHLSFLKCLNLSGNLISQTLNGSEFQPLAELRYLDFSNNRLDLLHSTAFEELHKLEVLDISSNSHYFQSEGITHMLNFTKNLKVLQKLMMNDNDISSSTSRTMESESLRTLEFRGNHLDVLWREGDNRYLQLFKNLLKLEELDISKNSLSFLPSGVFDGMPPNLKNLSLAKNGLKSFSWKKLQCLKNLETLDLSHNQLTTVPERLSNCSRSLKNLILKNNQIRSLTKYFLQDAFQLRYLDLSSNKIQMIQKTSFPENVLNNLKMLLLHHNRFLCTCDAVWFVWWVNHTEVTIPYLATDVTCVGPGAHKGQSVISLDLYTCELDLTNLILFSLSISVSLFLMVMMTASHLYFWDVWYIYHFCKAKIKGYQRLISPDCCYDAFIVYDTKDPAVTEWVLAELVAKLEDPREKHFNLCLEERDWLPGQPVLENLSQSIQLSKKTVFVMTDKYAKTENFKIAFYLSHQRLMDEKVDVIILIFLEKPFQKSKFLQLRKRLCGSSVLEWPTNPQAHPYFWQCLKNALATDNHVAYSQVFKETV
# assay-remarks: TLR7 inhibition reporter assay (HEK-Blue cells, SEAP reporter, gardiquimod stimulation)
# condition-set: HEK-Blue cells overexpressing human TLR7, SEAP reporter, gardiquimod 7.5 μM
Recorded IC50 for the following compounds

CC(C)c1c(-c2ccnc3c2CC(=O)N3)[nH]c2ccc(C3CCNCC3)cc12: 100 to 1000 nM
CCc1c(-c2cccc3c2cnn3C)[nH]c2ccc(C3CCN(C(=O)CN(C)C)CC3)cc12: > 50000 nM
Cc1cc(-c2[nH]c3ccc(C4CCN(C(=O)CN5CCOCC5)CC4)cc3c2C(C)C)cn2nnnc12: < 100 nM
Cc1cc(-c2[nH]c3ccc(C4CCNCC4)cc3c2C(C)C)cc2ocnc12: < 100 nM
Cc1cc(-c2[nH]c3ccc(C4CCNCC4)cc3c2C(C)C)cn2cc(C(=O)NC3CC3)nc12: < 100 nM

Task: What measured IC50 goes with CC(C)c1c(-c2ccnc3[nH]ncc23)[nH]c2ccc(C3CCNCC3F)cc12 (stereo not shown) [Example 171] ?
Result: < 100 nM

Task: What measured IC50 goes with `CCOc1cc(-c2[nH]c3ccc(C4CCN(CC(=O)NC)CC4)cc3c2C(C)C)cc2ncnn12` ?
Result: < 100 nM
